System: CCRF-CEM
Assay Method Text: NCI tumour cell line growth inhibition, 48 h
The source made the active and inactive calls. Cut-off read from the data, not from the text of the source: active = GI50 up to about 1.1 µM and inactive = higher.
Answer with one of the outcomes Yes (active), No (inactive)

Compound	Measured On	Assigned Class
COc1c2c3c4c(c(OC)c(=O)c5c(O)cc(OC)c(c6c(OC)cc(O)c(c1=O)c63)c54)C(C(C)O)C2C(C)O (stereo not given)	CCRF-CEM	Yes
CCCCCCCCCCCC[N+]12CC[N+](CCN)(CC1)CC2	CCRF-CEM	No
O=C1CCSCCC(=O)Nc2ccccc2N1	CCRF-CEM	No
CCC1(CCSC(=N)N)C(=O)NC(=O)NC1=O	CCRF-CEM	No
O=C(O)CN1CCN(CC(=O)O)CCN(CC(=O)O)CCN(CC(=O)O)CC1	CCRF-CEM	No

What was the test verdict on CCOC(=O)c1csc(NC(=O)C(C)N2CCOCC2)n1 (stereo not given) ?
No

What was the test verdict on `N#Cc1cc(NC(=O)c2ccccc2)c(=O)n2c1[nH]c1ccccc12` ?
No

What was the test verdict on `CNCc1cc(OC)ccc1-c1ccc(OC)c(OC)c1OC` ?
No

What was the test verdict on `COc1cccc([C@@H]2C/C(=N\NC(=O)C(=O)N[C@@H](C)c3ccccc3)c3ccccc3N2)c1` ?
No

What was the test verdict on `C=CC(=O)N1C/C(=C\c2ccc(Cl)cc2)C(=O)/C(=C/c2ccc(Cl)cc2)C1` ?
Yes
